- TARGET ENTITY: recombinant human MASP2 active protease (amino acids 297-686, C-terminal His Tag) (human, UniProt O00187 297-686)
- Sequence (O00187 other isoform, or with tags, fused parts or gaps limits assumed): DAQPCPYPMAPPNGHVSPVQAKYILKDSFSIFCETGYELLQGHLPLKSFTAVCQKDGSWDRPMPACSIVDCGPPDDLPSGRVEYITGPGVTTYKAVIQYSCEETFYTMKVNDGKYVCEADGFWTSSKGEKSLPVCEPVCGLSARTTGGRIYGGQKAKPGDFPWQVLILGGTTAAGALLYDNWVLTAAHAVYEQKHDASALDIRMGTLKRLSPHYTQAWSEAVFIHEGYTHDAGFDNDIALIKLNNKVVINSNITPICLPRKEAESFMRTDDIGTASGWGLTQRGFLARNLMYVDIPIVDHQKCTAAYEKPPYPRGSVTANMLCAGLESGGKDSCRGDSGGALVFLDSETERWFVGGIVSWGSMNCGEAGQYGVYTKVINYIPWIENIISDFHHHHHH
- RUN DESCRIPTION: cell-based or functional assay
Numbered stars: 1 amine (or outer) side, 2 acyl side, 3 side chain; on linkers, the order of the positions; unused ones are H or OH. Bridge positions count the residues as written; N and C are the ends. Square brackets hold non-standard residues; d marks the D form. Ends that are not written are not given here. TTDS = 1,13-diamino-4,7,10-trioxatridecan-succinamic acid, O=C(CCC(=O)[*:2])NCCCOCCOCCOCCCN[*:1]; Pro(3S,4R-methano) = O=C(O)[C@H]1NC[C@@H]2C[C@@H]21; Oic = O=C(O)[C@@H]1C[C@@H]2CCCC[C@@H]2N1; tBuAla = CC(C)(C)C[C@H](N)C(=O)O; Pen = CC(C)(S)[C@H](N)C(=O)O; NMeC = CN[C@@H](CS)C(=O)O; NMeA = CN[C@@H](C)C(=O)O; Sar = CNCC(=O)O
# key: entry, value: human MASP2 IC50
PROPERTY MEASURED: human MASP2 IC50 (nM)

>  <BINDER>
AICSRS[tBuAla]P[Oic]I[Pen]IPD-OH (disulfide 3-11; N-terminus assumed; SMILES CC[C@H](C)[C@H](NC(=O)[C@H](C)N)C(=O)N[C@H]1CSSC(C)(C)[C@@H](C(=O)N[C@H](C(=O)N2CCC[C@H]2C(=O)N[C@@H](CC(=O)O)C(=O)O)[C@@H](C)CC)NC(=O)[C@H]([C@@H](C)CC)NC(=O)[C@@H]2C[C@@H]3CCCC[C@@H]3N2C(=O)[C@@H]2CCCN2C(=O)[C@H](CC(C)(C)C)NC(=O)[C@H](CO)NC(=O)[C@H](CCCNC(=N)N)NC(=O)[C@H](CO)NC1=O) [AIC+SRS-((tBu)A)-P-(Oic)-I-(Pen)+IPD-OH]

>  <PROPERTY MEASURED>
human MASP2 IC50

>  <MEAS VALUE>
62

$$$$
>  <BINDER>
AICSRS[tBuAla]PPI[NMeC]IPD-OH (disulfide 3-11; N-terminus assumed; SMILES CC[C@H](C)[C@H](NC(=O)[C@H](C)N)C(=O)N[C@H]1CSSC[C@@H](C(=O)N[C@H](C(=O)N2CCC[C@H]2C(=O)N[C@@H](CC(=O)O)C(=O)O)[C@@H](C)CC)N(C)C(=O)[C@H]([C@@H](C)CC)NC(=O)[C@@H]2CCCN2C(=O)[C@@H]2CCCN2C(=O)[C@H](CC(C)(C)C)NC(=O)[C@H](CO)NC(=O)[C@H](CCCNC(=N)N)NC(=O)[C@H](CO)NC1=O) [AIC+SRS-((tBu)A)-PPI-((N-Me)C)+IPD-OH]

>  <PROPERTY MEASURED>
human MASP2 IC50

>  <MEAS VALUE>
185

$$$$
>  <BINDER>
[Sar]ICSRSLP[Oic]I[Pen]IP[PEG4‑CH2CO2H (15 atoms)]-NH2 (disulfide 3-11) [((N-Me)G)-IC+SRSLP-(Oic)-I-(Pen)+IP-(PEG4-CH2CO2H (15 atoms))-NH2]

>  <PROPERTY MEASURED>
human MASP2 IC50

>  <MEAS VALUE>
89

$$$$
>  <BINDER>
[NMeA]ICSRS[tBuAla]PPI[Pen]IP-NH2 (disulfide 3-11; N-terminus assumed; SMILES CC[C@H](C)[C@H](NC(=O)[C@H](C)NC)C(=O)N[C@H]1CSSC(C)(C)[C@@H](C(=O)N[C@H](C(=O)N2CCC[C@H]2C(N)=O)[C@@H](C)CC)NC(=O)[C@H]([C@@H](C)CC)NC(=O)[C@@H]2CCCN2C(=O)[C@@H]2CCCN2C(=O)[C@H](CC(C)(C)C)NC(=O)[C@H](CO)NC(=O)[C@H](CCCNC(=N)N)NC(=O)[C@H](CO)NC1=O) [((N-Me)A)-IC+SRS-((tBu)A)-PPI-(Pen)+IP-NH2]

>  <PROPERTY MEASURED>
human MASP2 IC50

>  <MEAS VALUE>
24

$$$$
>  <BINDER>
IICSRS[tBuAla]PPI[Pen]IPD-NH2 (disulfide 3-11; N-terminus assumed; SMILES CC[C@H](C)[C@H](N)C(=O)N[C@H](C(=O)N[C@H]1CSSC(C)(C)[C@@H](C(=O)N[C@H](C(=O)N2CCC[C@H]2C(=O)N[C@@H](CC(=O)O)C(N)=O)[C@@H](C)CC)NC(=O)[C@H]([C@@H](C)CC)NC(=O)[C@@H]2CCCN2C(=O)[C@@H]2CCCN2C(=O)[C@H](CC(C)(C)C)NC(=O)[C@H](CO)NC(=O)[C@H](CCCNC(=N)N)NC(=O)[C@H](CO)NC1=O)[C@@H](C)CC) [IIC+SRS-((tBu)A)-PPI-(Pen)+IPD-NH2]

>  <PROPERTY MEASURED>
human MASP2 IC50

>  <MEAS VALUE>
72

$$$$
>  <BINDER>
[Sar]ICSRSLP[Oic]I[Pen]IP[TTDS]-NH2 (disulfide 3-11; N-terminus assumed; SMILES CC[C@H](C)[C@H](NC(=O)CNC)C(=O)N[C@H]1CSSC(C)(C)[C@@H](C(=O)N[C@H](C(=O)N2CCC[C@H]2C(=O)NCCCOCCOCCOCCCNC(=O)CCC(N)=O)[C@@H](C)CC)NC(=O)[C@H]([C@@H](C)CC)NC(=O)[C@@H]2C[C@@H]3CCCC[C@@H]3N2C(=O)[C@@H]2CCCN2C(=O)[C@H](CC(C)C)NC(=O)[C@H](CO)NC(=O)[C@H](CCCNC(=N)N)NC(=O)[C@H](CO)NC1=O) [((N-Me)G)-IC+SRSLP-(Oic)-I-(Pen)+IP-(TTDS)-NH2]

>  <PROPERTY MEASURED>
human MASP2 IC50

>  <MEAS VALUE>
87

$$$$
>  <BINDER>
[Sar]ICSRSL[Pro(3S,4R-methano)]PI[Pen]IP-NH2 (disulfide 3-11; N-terminus assumed; SMILES CC[C@H](C)[C@H](NC(=O)CNC)C(=O)N[C@H]1CSSC(C)(C)[C@@H](C(=O)N[C@H](C(=O)N2CCC[C@H]2C(N)=O)[C@@H](C)CC)NC(=O)[C@H]([C@@H](C)CC)NC(=O)[C@@H]2CCCN2C(=O)[C@@H]2[C@H]3C[C@H]3CN2C(=O)[C@H](CC(C)C)NC(=O)[C@H](CO)NC(=O)[C@H](CCCNC(=N)N)NC(=O)[C@H](CO)NC1=O) [((N-Me)G)-IC+SRSL-((1S,2S,5R)-3-azabicyclo[3.1.0]hexane-2-carboxylic acid)-PI-(Pen)+IP-NH2]

>  <PROPERTY MEASURED>
human MASP2 IC50

>  <MEAS VALUE>
20

$$$$
>  <BINDER>
[NMeA]ICSRSLP[Oic]I[Pen]IP-NH2 (disulfide 3-11; N-terminus assumed; SMILES CC[C@H](C)[C@H](NC(=O)[C@H](C)NC)C(=O)N[C@H]1CSSC(C)(C)[C@@H](C(=O)N[C@H](C(=O)N2CCC[C@H]2C(N)=O)[C@@H](C)CC)NC(=O)[C@H]([C@@H](C)CC)NC(=O)[C@@H]2C[C@@H]3CCCC[C@@H]3N2C(=O)[C@@H]2CCCN2C(=O)[C@H](CC(C)C)NC(=O)[C@H](CO)NC(=O)[C@H](CCCNC(=N)N)NC(=O)[C@H](CO)NC1=O) [((N-Me)A)-IC+SRSLP-(Oic)-I-(Pen)+IP-NH2]

>  <PROPERTY MEASURED>
human MASP2 IC50

>  <MEAS VALUE>
99

$$$$

Attribution: patent US20210246166A1
